experiment: NALP1 inflammasome inhibitors in reconstituted yeast, colorimetric, S. cerevisiae, triplicate retest (AID 2071); conditions: S. cerevisiae NALP1/ASC/caspase-1 growth, X-gal OD620, 72 h, active compounds read high; at 10 µM unless noted
Hit rate of the full screen: of about 280,000 compounds, about 1,700 (0.61%) were called active. The full list was thinned out, with actives kept by preference.
Each entry below lists one item and its recorded inhibition value.
Express the result in % but write the number alone.

**Query** Give the measured inhibition for Cc1ccc(SCC(=O)c2sc(-c3ccccc3)nc2C)cc1
**Result** 30.2

**Query** Give the measured inhibition for CC(=O)c1ccc(N2Cc3ccccc3C2)cc1
**Result** 23

====

assay: NALP1 inflammasome inhibitors in reconstituted yeast, colorimetric, S. cerevisiae, triplicate retest (AID 2071); settings: S. cerevisiae NALP1/ASC/caspase-1 growth, X-gal OD620, 72 h; at 10 µM unless noted
Screen size: about 280,000 compounds; about 1,700 (0.61%) were called active. Rule as the data show it: active = inhibition mostly above about 24% (no sharp cut-off); inactive = mostly below about 32%. What follows is part of a selection rich in actives, with near analogues and random picks from the rest.
Output constraint: value belongs to YES for active, NO for inactive

Some solved entries appear below for comparison.
**Query** Please indicate how the test categorized CC1CN(C(=O)c2cc(COc3c(F)cccc3F)on2)CCN1C (centres undefined) .
**Result** NO

**Query** Please indicate how the test categorized O=C(CSCc1ccccc1)Nc1ccccc1 .
**Result** NO

**Query** Please indicate how the test categorized COc1cccc(-n2c(SCC(=O)NC3CCCCC3)nc3n[nH]c(C)c3c2=N)c1 .
**Result** NO

Continuing:
**Query** Please indicate how the test categorized COc1ccc(S(=O)(=O)N2CCN(C)CC2)c(C)c1 .
**Result** NO

**Query** Please indicate how the test categorized CC(=O)Nc1ccc(NC(=O)CS(=O)(=O)c2cn(CC(=O)N3CCCCC3)c3ccccc23)cc1 .
**Result** NO

**Query** Please indicate how the test categorized COc1ccc(C2C(C(C)=O)=C(O)C(=O)N2CCc2c[nH]c3ccccc23)cc1 (centres undefined) .
**Result** NO

**Query** Please indicate how the test categorized Cc1ccccc1NC(=O)NCc1ccco1 .
**Result** NO

**Query** Please indicate how the test categorized COc1ccccc1CNC(=O)[C@@H]1CCCN1C(=O)[C@@H]1Cc2ccccc2CN1C(=O)OC(C)(C)C .
**Result** NO

**Query** Please indicate how the test categorized O=C(CCCNS(=O)(=O)c1cccc2nsnc12)NCCN1CCN(c2ccccc2F)CC1 .
**Result** NO

**Query** Please indicate how the test categorized COc1ccc(N(C)C(=O)C2CCN(S(=O)(=O)c3cccc4nsnc34)CC2)cc1 .
**Result** NO

**Query** Please indicate how the test categorized COCCCNC(=O)COc1cc(C)c(Cl)c(C)c1 .
**Result** YES

**Query** Please indicate how the test categorized Cc1cccc(N2C(=O)CC(SC(N)=Nc3ccccc3)C2=O)c1 (centres undefined) .
**Result** NO

====

assay: NALP1 inflammasome inhibitors in reconstituted yeast, colorimetric, S. cerevisiae, triplicate retest (AID 2071); settings: S. cerevisiae NALP1/ASC/caspase-1 growth, X-gal OD620, 72 h; at 10 µM; active compounds read high
The whole screen tested about 280,000 compounds, of which about 1,700 (0.61%) were called active. The full list was thinned out, with actives kept by preference.
readout name: inhibition (%)
Express the result in % but write the number alone.

**Query** Give the measured inhibition for O=C1C=CC(=O)N1c1ccc(N2CCCCC2)cc1
**Result** 45.6

**Query** Give the measured inhibition for Cc1cccc2sc(N(CCCN(C)C)C(=O)CCS(=O)(=O)c3ccccc3)nc12
**Result** 78.1

**Query** Give the measured inhibition for CC1(C)CCSC(/C=C/c2ccccc2)=N1
**Result** 53.2

**Query** Give the measured inhibition for COc1cc(N2C(=O)CSC2=S)cc(OC)c1OC
**Result** 52.7

**Query** Give the measured inhibition for CCN1/C(=C\c2ccc3ccccc3[n+]2CC)Sc2cc(C)ccc21
**Result** 77.1

Continuing:
**Query** Give the measured inhibition for COc1ccc(NC(=S)SC)cc1OC
**Result** 73.8

**Query** Give the measured inhibition for COC(=O)c1ccccc1SC1CC(=O)N(c2cccc(C)c2)C1=O (stereo not drawn)
**Result** 74.7

**Query** Give the measured inhibition for CCC(=O)c1ccc(OCC(O)CN2CCN(c3cccc(C(F)(F)F)c3)CC2)cc1 (stereo not drawn)
**Result** 52.2

====

test: NALP1 inflammasome inhibitors in reconstituted yeast, colorimetric, S. cerevisiae, triplicate retest (AID 2071); conditions: S. cerevisiae NALP1/ASC/caspase-1 growth, X-gal OD620, 72 h, active compounds read high; at 10 µM unless noted
Out of some 280,000 compounds screened, about 1,700 (0.61%) were called active. The list comes from a sample in which actives are over-represented; it also holds close analogues and randomly drawn compounds.
// not fulfilled strictly below 10% in inhibition; fulfilled otherwise

**Query** Decide: is the reported value of inhibition for O=C(C1=C[C@H](c2ccc(C(F)(F)F)cc2)C[C@H](OCc2ccc(CO)cc2)O1)N1CCN(Cc2ccccc2)CC1 equal to or greater than 10%?
**Result** fulfilled

**Query** Decide: is the reported value of inhibition for CCOC(=O)Nc1ccc2c(c1)N(C(=O)CCCl)c1ccccc1[S@]2=O equal to or greater than 10%?
**Result** not fulfilled

**Query** Decide: is the reported value of inhibition for CC(Sc1nncn1C)C(=O)Nc1cc(C(F)(F)F)ccc1N1CCOCC1 (centres undefined) equal to or greater than 10%?
**Result** not fulfilled

**Query** Decide: is the reported value of inhibition for Cc1ccc(-n2ncc(C(=O)NC3CC3)c2C2CCN(C(=O)OC(C)(C)C)CC2)c(C)c1 equal to or greater than 10%?
**Result** not fulfilled

**Query** Decide: is the reported value of inhibition for COc1cc2[nH]c(=O)n(CCC(=O)NC3CCN(Cc4ccccc4)CC3)c(=O)c2cc1OC equal to or greater than 10%?
**Result** fulfilled

**Query** Decide: is the reported value of inhibition for COC(=O)c1ccc(COc2ccc(/C=C/C(=O)c3ccc(OC)c(CSCC(=O)O)c3)cc2OC)cc1 equal to or greater than 10%?
**Result** fulfilled

====

assay: NALP1 inflammasome inhibitors in reconstituted yeast, colorimetric, S. cerevisiae, triplicate retest (AID 2071); conditions: S. cerevisiae NALP1/ASC/caspase-1 growth, X-gal OD620, 72 h; at 10 µM unless noted
Out of some 280,000 compounds screened, about 1,700 (0.61%) were called active. No stated cut-off is given here; in the data, active means inhibition mostly above about 24% (no sharp cut-off); inactive means mostly below about 32%. The sample holds actives, similar compounds and a random draw of the others, so the mix is not that of the screen.
Output constraint: value belongs to active, inactive

Some solved entries appear below for comparison.
**Query** Please indicate how the test categorized CCCCOC(=O)Cn1c(=N)n(CCN(CC)CC)c2ccccc21 .
**Result** inactive

**Query** Please indicate how the test categorized CCCCCCCCCCOC(=O)Cn1c(COc2ccc(C)cc2)[n+](C)c2ccccc21 .
**Result** active

**Query** Please indicate how the test categorized S=C(Nc1ccc(Cl)cc1Cl)N1CCCC1 .
**Result** inactive

**Query** Please indicate how the test categorized Oc1ccc2ccccc2c1N=Nc1nccs1 .
**Result** active

**Query** Please indicate how the test categorized Cc1nc2cc(NC(=O)NC3CC3)ccc2n1C .
**Result** active

Continuing:
**Query** Please indicate how the test categorized O=C(CSc1ncnc2c1nnn2Cc1ccc(F)cc1)NC1CCCC1 .
**Result** active

**Query** Please indicate how the test categorized O=C(Nc1nnc(C2CC2)s1)c1cc(Cl)sc1Cl .
**Result** inactive

**Query** Please indicate how the test categorized Cc1ccccc1C(=O)NC(=S)NC1CC1 .
**Result** inactive

**Query** Please indicate how the test categorized COc1ccc(/C=N/Nc2ccccc2C(=O)O)cc1 .
**Result** inactive

**Query** Please indicate how the test categorized Cc1ccc(NC(=O)C/C(N)=N/O)cc1Cl .
**Result** inactive

**Query** Please indicate how the test categorized COc1ccc(-n2c(SCC(=O)Nc3sc4c(c3C#N)CCCC4)nnc2-c2ccc(O)cc2)cc1 .
**Result** active

**Query** Please indicate how the test categorized COc1nnc(-c2ccc(C)c(S(=O)(=O)N(C)C)c2)c2ccccc12 .
**Result** inactive

**Query** Please indicate how the test categorized O=C(NC(=S)N1CCCCC1c1cccnc1)c1ccccc1 (configuration not stated) .
**Result** inactive

**Query** Please indicate how the test categorized Cc1snc(SCc2c(F)cccc2Cl)c1C#N .
**Result** inactive

**Query** Please indicate how the test categorized Cc1cc(Cl)nc(NC(=O)Nc2cccc(Cl)c2)n1 .
**Result** inactive

====

Each entry below lists one item and its recorded inhibition value.
experiment: NALP1 inflammasome inhibitors in reconstituted yeast, colorimetric, S. cerevisiae, triplicate retest (AID 2071); settings: S. cerevisiae NALP1/ASC/caspase-1 growth, X-gal OD620, 72 h, active compounds read high; at 10 µM unless noted
Out of some 280,000 compounds screened, about 1,700 (0.61%) were called active. Shown is part of a subset that was picked to be rich in actives.
Express the result in % but write the number alone.

The following compounds have reported results that may help.
**Query** Give the measured inhibition for CCC(C)c1ccc(NC(=S)N2CCCC2)cc1 (stereo unspecified)
**Result** -2.6

**Query** Give the measured inhibition for CN(C)CCOC1c2ccccc2-c2ccccc21
**Result** 6

**Query** Give the measured inhibition for CCn1c(=N)n(CC(=O)c2cccc(OC)c2)c2ccccc21
**Result** 31.5

**Query** Give the measured inhibition for CCCn1c(=N)n(CC(=O)c2ccc(Cl)c(Cl)c2)c2ccccc21
**Result** 23.1

**Query** Give the measured inhibition for CCc1ccc(NC(=O)COC(=O)c2cccs2)cc1
**Result** 8.1

Next:
**Query** Give the measured inhibition for COc1ccc2cc(C(=O)O)n(CC(=O)c3ccccc3)c2c1
**Result** 14
